Could you please report measured Ki for the items listed next?
- measured_on: HPK1 (Homo sapiens, UniProt Q92918)
- Sequence (Q92918 whole entry, looked up): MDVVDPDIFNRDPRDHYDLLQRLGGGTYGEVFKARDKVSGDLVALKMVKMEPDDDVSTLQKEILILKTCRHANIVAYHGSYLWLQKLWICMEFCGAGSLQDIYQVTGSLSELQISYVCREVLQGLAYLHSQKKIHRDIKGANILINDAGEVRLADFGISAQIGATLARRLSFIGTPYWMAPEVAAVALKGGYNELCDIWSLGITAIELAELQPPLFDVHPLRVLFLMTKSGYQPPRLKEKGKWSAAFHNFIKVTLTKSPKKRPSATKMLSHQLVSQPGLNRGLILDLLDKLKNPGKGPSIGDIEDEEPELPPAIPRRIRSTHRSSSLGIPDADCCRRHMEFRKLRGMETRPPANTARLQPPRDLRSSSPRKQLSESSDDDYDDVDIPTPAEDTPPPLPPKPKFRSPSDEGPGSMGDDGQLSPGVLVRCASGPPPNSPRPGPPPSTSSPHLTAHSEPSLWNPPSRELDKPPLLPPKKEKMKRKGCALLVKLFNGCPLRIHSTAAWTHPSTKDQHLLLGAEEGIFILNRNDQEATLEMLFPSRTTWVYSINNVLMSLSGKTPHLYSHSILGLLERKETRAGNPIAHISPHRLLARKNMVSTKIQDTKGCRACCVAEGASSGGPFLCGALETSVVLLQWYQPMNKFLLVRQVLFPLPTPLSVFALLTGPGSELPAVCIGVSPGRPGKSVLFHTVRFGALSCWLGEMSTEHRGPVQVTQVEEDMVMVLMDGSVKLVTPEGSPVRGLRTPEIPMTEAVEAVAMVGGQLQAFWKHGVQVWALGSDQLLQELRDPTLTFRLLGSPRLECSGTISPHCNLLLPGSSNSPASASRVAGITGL
- experiment_notes: HPK1 Lantha Binding Assay ("Lanth")
- conditions: Table B1-1, read-out: HPK1 Ki (μM) (Lanth)
Kindly provide the numeric value in µM only, without the unit symbol.

// field: Ki; key: Cc1c(N)cncc1-c1cc2cc(NC(=O)[C@@H]3C[C@H]3C#N)ncc2c(N)n1 (racemic) ; value = 0.00095

Cc1ccncc1-c1cc2cc(NC(=O)[C@@H]3C[C@H]3F)ncc2c(N)n1 (racemic) [Compound 51] yielded Ki of 0.0013

Short answer for CNc1cncc(-c2cc3cc(NC(=O)[C@@H]4C[C@@H]4F)ncc3c(N)n2)c1C (racemic) : Ki was 0.00353

# Ki of Nc1nc(N2CCCC2CCO)cc2cc(NC(=O)[C@@H]3C[C@@H]3F)ncc12 (mixture of isomers) = 0.0489

Reported Ki for Cc1ccncc1-c1cc2cc(NC(=O)NC(C)CO)ncc2c(N)n1 (stereo not shown) [Compound 117] was 0.00847

Looking up Cc1ccncc1-c1cc2cc(NC(=O)[C@@H]3C[C@@H]3C(=O)N(C)C)ncc2c(N)n1 (racemic) , I found its Ki recorded as 0.13

// recorded Ki for N#C[C@H]1C[C@@H]1C(=O)Nc1cc2cc(-c3cnccc3CCO)nc(N)c2cn1 (racemic) : 0.0027

Provenance of the data: patent US11034692B1
